tested-system: BSA (Bos taurus)
Construct: purchased Millipore Sigma-Aldrich
test-name: DSC thermal unfolding of BSA in water and aqueous solutions of ABS phase-forming components
Format: physicochemical, bovine
conditions-used: 1.0 mg/mL BSA, 5 mM component
Experimental: Differential scanning calorimetry (DSC) measurements were performed with Nano DSC equipment, as detailed in Section 3, and used to determine the melting temperature (T m ) and enthalpy ( Δ H) of protein unfolding. […] Due to the volume and concentration requirements of the DSC technique, and the constraints in available quantities of IFN- α 2b the DSC experiments on the ABS phase-forming components’ effect on the structural properties of proteins were attained only for BSA. […]
Recorded Tm for the following molecules

{"columns": ["molecule", "Tm / °C"],
 "data": [
  ["OC[C@H]1O[C@@](CO)(O[C@H]2O[C@H](CO)[C@@H](O)[C@H](O)[C@H]2O)[C@@H](O)[C@@H]1O [Sucrose, sucrose]", 80.68],
  ["CCn1cc[n+](C)c1.O=S(=O)([O-])C(F)(F)C(F)(F)C(F)(F)C(F)(F)F", 80.59],
  ["CCCCn1cc[n+](C)c1.O=S(=O)([O-])C(F)(F)F [[C4C1Im][CF3SO3]]", 81.43],
  ["C[N+](C)(C)CCO.C[N+](C)(C)CCO.O=P([O-])(O)O.O=P([O-])(O)O [[N1112(OH)][H2PO4]]", 80.80],
  ["C[N+](C)(C)CCO.O=S(=O)([O-])C(F)(F)C(F)(F)C(F)(F)C(F)(F)F [[N1112(OH)][C4F9SO3]]", 79.79]
]}

----------
tested-system: BSA (Bos taurus, UniProt P02769)
Construct: purchased Millipore Sigma-Aldrich
Sequence (P02769 25-607): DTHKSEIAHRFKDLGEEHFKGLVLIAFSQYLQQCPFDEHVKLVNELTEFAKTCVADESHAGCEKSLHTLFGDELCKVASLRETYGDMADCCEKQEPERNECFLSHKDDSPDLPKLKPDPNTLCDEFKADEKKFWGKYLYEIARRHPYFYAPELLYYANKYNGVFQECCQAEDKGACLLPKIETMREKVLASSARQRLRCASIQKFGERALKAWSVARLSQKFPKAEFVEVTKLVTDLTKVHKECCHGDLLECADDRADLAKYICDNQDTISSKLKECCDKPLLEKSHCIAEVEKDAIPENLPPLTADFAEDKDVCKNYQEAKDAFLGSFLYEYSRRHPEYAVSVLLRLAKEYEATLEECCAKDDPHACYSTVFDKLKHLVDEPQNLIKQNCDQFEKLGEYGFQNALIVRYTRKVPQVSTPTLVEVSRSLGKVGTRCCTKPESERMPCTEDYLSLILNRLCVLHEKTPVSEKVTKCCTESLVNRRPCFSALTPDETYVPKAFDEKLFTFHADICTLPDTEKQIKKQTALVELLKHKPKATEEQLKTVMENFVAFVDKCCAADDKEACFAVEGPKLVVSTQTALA
test-name: DSC thermal unfolding of BSA in water and aqueous solutions of ABS phase-forming components
Format: physicochemical, bovine
conditions-used: 1.0 mg/mL BSA, 10 mM component
Recorded ΔHvH for the following compounds

{"columns": ["compound", "tested-system", "units-of-measure", "ΔHvH"],
 "data": [
  ["CCCCn1cc[n+](C)c1.O=S(=O)([O-])C(F)(F)F [[C4C1Im][CF3SO3]]", "BSA (Bos taurus, UniProt P02769)", "kcal/mol", 120.7],
  ["OC[C@H]1O[C@@](CO)(O[C@H]2O[C@H](CO)[C@@H](O)[C@H](O)[C@H]2O)[C@@H](O)[C@@H]1O [Sucrose, sucrose]", "BSA (Bos taurus, UniProt P02769)", "kcal/mol", 151.9],
  ["C[N+](C)(C)CCO.C[N+](C)(C)CCO.O=P([O-])(O)O.O=P([O-])(O)O [[N1112(OH)][H2PO4]]", "BSA (Bos taurus, UniProt P02769)", "kcal/mol", 123],
  ["C[N+](C)(C)CCO.O=S(=O)([O-])C(F)(F)C(F)(F)C(F)(F)C(F)(F)F [[N1112(OH)][C4F9SO3]]", "BSA (Bos taurus, UniProt P02769)", "kcal/mol", 171.3],
  ["CCn1cc[n+](C)c1.O=S(=O)([O-])C(F)(F)C(F)(F)C(F)(F)C(F)(F)F", "BSA (Bos taurus, UniProt P02769)", "kcal/mol", 173.1]
]}

----------
tested-system: BSA (Bos taurus, UniProt P02769)
Construct: purchased Millipore Sigma-Aldrich
test-name: DSC thermal unfolding of BSA in water and aqueous solutions of ABS phase-forming components
Format: physicochemical, bovine
conditions-used: 1.0 mg/mL BSA, 5 mM component
outcome-measure: ΔHcal (kcal/mol)

{"columns": ["compound", "numeric-value"],
 "data": [
  ["CCn1cc[n+](C)c1.O=S(=O)([O-])C(F)(F)C(F)(F)C(F)(F)C(F)(F)F", 190.7],
  ["C[N+](C)(C)CCO.C[N+](C)(C)CCO.O=P([O-])(O)O.O=P([O-])(O)O [[N1112(OH)][H2PO4]]", 162.2],
  ["OC[C@H]1O[C@@](CO)(O[C@H]2O[C@H](CO)[C@@H](O)[C@H](O)[C@H]2O)[C@@H](O)[C@@H]1O", 131.5],
  ["C[N+](C)(C)CCO.O=S(=O)([O-])C(F)(F)C(F)(F)C(F)(F)C(F)(F)F [[N1112(OH)][C4F9SO3]]", 169.4],
  ["CCCCn1cc[n+](C)c1.O=S(=O)([O-])C(F)(F)F [[C4C1Im][CF3SO3]]", 171.4]
]}

Sourced from paper PMC10931833
